System: ATGGGP-L-BD (Homo sapiens, UniProt P51531-2 1358-1490, R1368G;R1370G)
Measurement Notes: NMR
Assay Endpoint: Kd (µM)
Give bare numbers, in µM.

# return recorded Kd for entry 10 bp NMR dsDNA (dsDNA) DNA 1: CTCAATTGGT DNA 2: ACCAATTGAG
130
